Target: T1, recombinant cynomolgus monkey IL-13 (cynomolgus monkey, UniProt Q0PW92 21-132)
T1 construct: bought; also called rc-IL-13; cIL-13
T1 sequence (Q0PW92 entry or part of it): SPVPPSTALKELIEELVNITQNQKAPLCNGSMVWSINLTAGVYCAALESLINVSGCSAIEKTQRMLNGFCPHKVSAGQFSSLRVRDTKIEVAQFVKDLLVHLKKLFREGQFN
Assay: SPR
The following binders are listed with their measured kon values.
Reported Endpoint: kon (M⁻¹ s⁻¹)

Binder	Observed Result
BDG38.116 (antibody, V domains shown, IgG1) VH: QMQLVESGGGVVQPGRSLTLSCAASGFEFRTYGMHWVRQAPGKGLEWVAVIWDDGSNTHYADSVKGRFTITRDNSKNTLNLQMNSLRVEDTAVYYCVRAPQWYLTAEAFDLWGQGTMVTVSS VL: SYVLTQPPSVSVAPGQTATITCGGNLIGARLVHWYQQKPGQAPVLVIYDDSDRPSRIPERFSGSNIGNTATLTIERVEAGDEADYYCQVWDYYSDTMVFGGGTKLTVL	3.14e+07
BDG38.139 (antibody, V domains shown, IgG1) VH: QMQLVESGGGVVQPGRSLRLSCAASGFAFRTYGMHWVRQAPGKGLEWVAVIWDDGSNTHYADSVKGRFTITRDNSKNTLNLQMNSLRAEDTAVYYCVRAPQWYLSAEAFDLWGQGTMVTVSS VL: SYVLTQPPSVSVAPGETATITCGGNMIGAYLVHWYQQKPGQAPLLVIYDDVDRPARIPERFSGSNSGNTATLTISRVEAGDEADYYCQVWDHNSDHMVFGGGTKLTVL	2.27e+07
BDG38.132 (antibody, V domains shown, IgG1) VH: QMQLVESGGGVVQPGRSLRLSCAASGFEFRTYGMHWVRQAPGKGLEWVGVIWDDGSNTHYADSVKGRFTITRDNSKNTLNLQMNSLRAEDTAVYYCVRAPQWYLTAEAFDLWGQGTMVTVSS VL: SYILTQPPSVSVAPGETATITCGGNLIGARLVHWYQQKPGQAPVLVIYDDSDRPSRIPERFSGSNIGNTATLTISRVEAGDEADYYCQVWDYSSDHMVFGGGTKLTVL	3.58e+07
BDG38.117 (antibody, V domains shown, IgG1) VH: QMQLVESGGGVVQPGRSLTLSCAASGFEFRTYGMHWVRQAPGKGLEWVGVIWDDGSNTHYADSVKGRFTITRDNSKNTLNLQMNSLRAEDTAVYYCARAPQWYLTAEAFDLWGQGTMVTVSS VL: SYVLTQPPSVSVAPGETATITCGGNLIGAKLVHWYQQKPGQAPVLVIYDDSDRPSRIPERFSGSNIGNTATLTIEDVEAGDEADYYCQVWDYSSDTMVFGGGTKLTVL	3.94e+07
BDG38.090 (antibody, V domains shown, IgG1) VH: QMQLVESGGGVVQPGRSLTLSCAASGFEFRTYGMHWVRQAPGKGLEWLGVIWDDGSNTHYADSVKGRFTITRDNSKNTLNLQMNSLRVEDTAVYYCARAPQWYLTAEAFDLWGQGTMVTVSS VL: SYILTQPPSVSVAPGETARITCGGNLIGARLVHWYQQKPGQAPVLVVYDDSDRPSRIPERFSGSNIGNTATLTIEDVEEGDEADYYCQVWDYYSDHMVFGGGTKLTVL	2.49e+07
BDG38.094 (antibody, V domains shown, IgG1) VH: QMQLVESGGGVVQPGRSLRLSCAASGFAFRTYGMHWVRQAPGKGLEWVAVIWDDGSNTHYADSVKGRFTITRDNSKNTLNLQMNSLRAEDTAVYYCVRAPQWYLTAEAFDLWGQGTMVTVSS VL: SYVLTQPPSVSVAPGETASITCGGNLIGAYLVHWYQQKPGQAPLLVIYDDVDRPARIPERFSGSNSGNTATLTISRVEAGDEADYYCQVWDHNSNHMVFGGGTKLTVL	2.22e+07
BDG38.075 (antibody, V domains shown, IgG1) VH: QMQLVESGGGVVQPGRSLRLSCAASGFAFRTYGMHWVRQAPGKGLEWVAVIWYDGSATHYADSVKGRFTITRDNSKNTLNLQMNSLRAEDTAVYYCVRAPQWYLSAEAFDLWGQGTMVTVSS VL: SYVLTQPPSVSVAPGETATITCGGNLIGAYLVHWYQQKPGQAPVLVIYDDVDRPARIPERFSGSNSGNTATLTISRVEAGDEADYYCQVWDHDTNTMVFGGGTKLTVL	3.45e+07
BDG38.129 (antibody, V domains shown, IgG1) VH: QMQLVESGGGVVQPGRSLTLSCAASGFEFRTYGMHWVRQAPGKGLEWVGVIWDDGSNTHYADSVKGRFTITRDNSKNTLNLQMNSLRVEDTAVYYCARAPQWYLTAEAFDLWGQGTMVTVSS VL: SYILTQPPSVSVAPGQTATITCGGNLIGAKLVHWYQQKPGQAPVLVIYDDSDRPSRIPERFSGSNIGNTATLTISDVEEGDEADYYCQVWDYSSDHMVFGGGTKLTVL	6.05e+07
